- measurement target: Chromo domain-containing protein 1 (Saccharomyces cerevisiae (strain ATCC 204508 / S288c) (Baker's yeast))
- experimental details: ScCHD-1 Enzyme Inhibition Assay
- Format: functional
- Parameters: scale not given: in the data most compounds retested in dose-response had high values
- experimental setup: 30 µM
measurement label: Percent Effect (%)
Write the number in % without appending the unit.

- compound: "COc1ccc(-c2noc(CN3CCOCC3C)n2)cc1OC (stereo not drawn)"
  units of measure: "%"
  quantitative readout: -11
- compound: "Cc1nn(C)cc1CN(C)Cc1cc2c(cc1OC(F)F)OCO2"
  units of measure: "%"
  quantitative readout: -3.28
- compound: "CC(C)c1nc2n(n1)CC(NCc1nnnn1C1CC1)CC2 (stereo not drawn)"
  units of measure: "%"
  quantitative readout: -10.6
- compound: "CN(CC(=O)N1CCCC1Cn1cccn1)c1cnccn1 (stereo not drawn)"
  units of measure: "%"
  quantitative readout: -2.89
- compound: "COCCN1CCN(Cc2cccc(C(=O)N(C)C)c2)CC1C (stereo not drawn)"
  units of measure: "%"
  quantitative readout: -8.7
- compound: "Cc1cc2c(=O)n3c(nc2s1)CCN(Cc1cnn(C)c1C)CC3"
  units of measure: "%"
  quantitative readout: -8.69
- compound: "Cc1cnc2n1CCN(C)C21CCN(C(=O)CC(C)C)CC1"
  units of measure: "%"
  quantitative readout: -7.37
- compound: "CN(CCn1nc2ccccn2c1=O)CC(=O)NC1CC1"
  units of measure: "%"
  quantitative readout: -5.38
- compound: "CCn1c(CN(C)C)nnc1C1CCN(c2ccnc(C)c2)CC1"
  units of measure: "%"
  quantitative readout: -1.27
- compound: "CC(=O)N(Cc1noc(C)n1)C1CCN(CCOc2ccccc2)C1 (stereo not drawn)"
  units of measure: "%"
  quantitative readout: -7.28

API: the following record is the query input.
**Query** Which value of Percent Effect has been reported for CN(Cc1cccnc1)CC1CCCN1c1cccnn1 (stereo not drawn) in the records?
**Result** -18.6
